Collected pIC50 values appear next to each entry.
Molecular target: Recombinant Human NF-Kappab-Inducing Kinase (NIK/MAP3K14) (Homo sapiens)
Sequence (Q99558 whole entry): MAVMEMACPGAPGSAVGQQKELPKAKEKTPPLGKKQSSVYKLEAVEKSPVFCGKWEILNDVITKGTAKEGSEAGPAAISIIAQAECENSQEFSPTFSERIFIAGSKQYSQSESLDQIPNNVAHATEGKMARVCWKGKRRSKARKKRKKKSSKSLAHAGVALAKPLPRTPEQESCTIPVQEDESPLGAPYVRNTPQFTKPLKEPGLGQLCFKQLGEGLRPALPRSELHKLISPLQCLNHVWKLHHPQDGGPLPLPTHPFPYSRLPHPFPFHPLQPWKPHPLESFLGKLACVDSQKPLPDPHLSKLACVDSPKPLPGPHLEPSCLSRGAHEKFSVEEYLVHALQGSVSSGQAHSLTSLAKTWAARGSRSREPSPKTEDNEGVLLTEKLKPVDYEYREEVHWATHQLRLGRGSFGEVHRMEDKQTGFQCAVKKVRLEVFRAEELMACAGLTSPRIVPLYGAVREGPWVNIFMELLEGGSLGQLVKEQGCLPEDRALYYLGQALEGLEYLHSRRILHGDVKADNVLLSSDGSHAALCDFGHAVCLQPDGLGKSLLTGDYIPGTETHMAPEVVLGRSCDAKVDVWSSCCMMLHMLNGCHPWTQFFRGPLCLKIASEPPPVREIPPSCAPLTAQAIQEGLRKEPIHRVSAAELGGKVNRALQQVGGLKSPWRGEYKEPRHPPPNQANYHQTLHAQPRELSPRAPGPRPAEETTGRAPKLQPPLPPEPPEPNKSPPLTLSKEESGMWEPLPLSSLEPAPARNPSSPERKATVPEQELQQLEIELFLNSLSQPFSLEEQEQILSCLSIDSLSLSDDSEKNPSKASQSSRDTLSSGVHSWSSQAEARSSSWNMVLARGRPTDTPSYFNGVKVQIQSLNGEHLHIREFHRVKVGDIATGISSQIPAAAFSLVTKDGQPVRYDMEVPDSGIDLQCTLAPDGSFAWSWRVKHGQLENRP
Assay: Inhibition of auto-phosphorylation of recombinant human NIK/MAP3K14 (AlphaScreen)
Format: biochemical
Conditions: NIK/MAP3K14 auto-phosphorylation, 5 microM ATP, 1 nM enzyme, 2 h at 25° C.; average of values; read-out: Assay 1 IC50
pIC50: −log10 of the molar value.

Look up pIC50: Cc1cn(C)nc1Nc1sc(-c2cccc(-c3cc([C@]4(O)CCN(C)C4=O)on3)c2)nc1C(N)=O
> 7.00

New cases:
Look up pIC50: CN1CC[C@@](O)(c2cc(-c3cccc(-c4ccnc(N)c4)c3)no2)C1=O
6.30 to 7.00

Look up pIC50: Cc1nc2cc(-c3cccc(-c4cc([C@]5(O)CCN(C)C5=O)on4)c3)ccc2o1
< 6.30
